Biological target: T1, macaca IL6R-his protein (macaca mulatta)
T1 chain: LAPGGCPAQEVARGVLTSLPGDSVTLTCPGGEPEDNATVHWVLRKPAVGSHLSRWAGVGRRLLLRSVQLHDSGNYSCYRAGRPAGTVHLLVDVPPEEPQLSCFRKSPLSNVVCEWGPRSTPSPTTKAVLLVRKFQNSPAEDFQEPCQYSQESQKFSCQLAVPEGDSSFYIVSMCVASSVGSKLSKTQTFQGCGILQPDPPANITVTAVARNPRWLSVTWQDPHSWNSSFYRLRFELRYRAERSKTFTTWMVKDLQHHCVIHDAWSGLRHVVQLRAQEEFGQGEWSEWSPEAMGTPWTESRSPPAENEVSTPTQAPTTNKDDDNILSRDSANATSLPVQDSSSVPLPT
Assay: SPR Biacore T200; mAb captured by anti-mouse IgG on CM5, antigen in flow, 1:1 fit
parameter: koff (s⁻¹)
# output: bare number, implied unit s⁻¹

binder: mouse anti-IL6R monoclonal antibody 1H9 (antibody, V domains shown, Mouse hybridoma mAb) VH: QVQLQQPGAELVKPGASVKLSCKASGYTFTSYWMHWVKLRPGQGLEWIGEINPTNGRTNYYEKFKNRATLTADKSSSTAYMQLSSLTFEDSAVYFCAKFHYSRWYFDVWGTGTTVTVSS VL: DIVMTQSQKFMSTSVGDRVSITCKASQNVGTAVVWYQQKPGQSPKLLINPASNRYTGVPDRFTGSGSGTDFTLTISNMQSEDLADYFCQQYSSYPLTFGAGTKLELK
unit.tag: s⁻¹
koff: 0.000155

Enquiry: # lookup: koff of mouse anti-IL6R monoclonal antibody 3C2 (antibody, V domains shown, Mouse hybridoma mAb) VH: QVQLQQPGTELVKPGASVKLSCKASGYTFTTYWIHWVKQRPGQGLEWIGEINPSNGRTNYNEHFKSKATLTVDKSSSTASMQLSSLTSADSAVYYCARLNTHYVFDSWGQGTTLTVSS VL: EIVLTQSPTTMAASPGEKITITCSASSSISSNYLHWYQQKPGFSPKLLIYRTSNLASGVPTHFSGSGSGTSYSLTIGTMEAEDVATYYCQQGSGIPFTFGSGTKLEIK
Return: 0.000127

Enquiry: # lookup: koff of mouse anti-IL6R monoclonal antibody 1G1 (antibody, V domains shown, Mouse hybridoma mAb) VH: QVQLQQPGAELVKPGASVKLSCKASGYTFTSYWMHWVKVRPGQGLEWIGEINPTNGRTNYNEDFKSKATLTVESSSSTAYMQFSSLTSEDSAVYYCARLNTHYVFDYWGQGTTLTVSS VL: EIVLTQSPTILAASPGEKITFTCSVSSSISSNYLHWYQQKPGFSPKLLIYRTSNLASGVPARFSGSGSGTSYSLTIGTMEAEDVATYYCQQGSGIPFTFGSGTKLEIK
Return: 8.85e-05

Enquiry: # lookup: koff of mouse anti-IL6R monoclonal antibody 1A3 (antibody, V domains shown, Mouse hybridoma mAb purified on Protein A) VH: QVQLQQPGAELVKPGASVKLSCKASGYTFTSYWMHWVKQRPAQGLEWIGEINPSNGRTNFNEKFKTKATLTVDKSSNTAYMQLSSLTSEDSAVYSCLRLNTHYVFDYWGQGTTLTVSS VL: EIVLTQSPTTMAASPGEKITITCSASSSISSNYLHWYQQKPGFSPKLLISRTSNLASGVPTRFSGSGSGTSYSLTIGTMEAGDVATYYCQQGSGIPFTFGSGTKLEIK
Return: 4.54e-05

Enquiry: # lookup: koff of mouse anti-IL6R monoclonal antibody 1B5 (antibody, V domains shown, Mouse hybridoma mAb) VH: QVQLQQPGAELVKPGASVKLSCKASGYTFTSYWMHWVKQRPGQGLEWIGEINPSNGRTNYNENFKSKATLTVDKSSSTAYMQLSSLTSEDSAVYYCARLNTHYVFDYWGQGTTLTVSS VL: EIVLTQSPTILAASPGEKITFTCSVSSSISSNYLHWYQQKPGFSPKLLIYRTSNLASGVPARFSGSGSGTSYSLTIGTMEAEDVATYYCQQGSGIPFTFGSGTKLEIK
Return: 7.86e-05
